Molecular target: pooled human IgG (human)
Assay: cell-based or functional assay
Flag rule - Enzyme Activity Endpoint Assay (purified): Fc less than 200 ng/µL flags class 1; the remaining entries get class 0.

Enquiry: Is it true that Enzyme Activity Endpoint Assay (purified): Fc reported for PRT-221 (enzyme) MEVVEVWPYGQNPNGKTEILSQTEDSESLQRLRDIEDFQAEKKMQNVVYTKWLDGVDVKDHDFRKIVDGNIAYYATPLLNGRGFYDINKDFNRDSDKCAAAVAANMFHYWLDINRDNVDRFLRQNPEKHGIIELPDGQLKLSDFLNTYESDHGYRDKSKLFDFISNNFNGPVWTDKLLDNYINGYAYNYKYGRTIEDPTKNTSKINFFKEVFNEKILTNNHSIRNQNEFSVLLSEALYTGKAIGLSYGPAGLRHSLGHIISVWGADLDADGNVVAIYVTDSDDKKLTIGDERVGLKRYKISTDDENRLRLTAYEETHNTGGQIRGLWTLDTGKQAWADYFDKTEQTGTDQAEQLEHHHHHH is less than 200 ng/µL?
Return: class 0

Enquiry: Is it true that Enzyme Activity Endpoint Assay (purified): Fc reported for PRT-217 (enzyme) MEVVEVWPYGQNPNGKTEILSQTEDSESLQRLRDIEDFQAEKKKQNVVYTKWLDGVTVDDSDFRKIKDGNTEYYATPLLNGRGFYDINKDFNRDSDKCAAAVAANMFHYWLDRNRDNVDRFLKQNPEKHGIIELPDGQLKLSDFLNTYESDNNYRDKSKLFDFISKNFNGPVWTNKLLDNYINGYGYNYKYGRTIEDPTKNTSKINFFKKVFNEKILTNVHQIFNYNEFSTLLSEALYTGKAIGLSYGPGGLRHSLGHIISVWGADLDADGNVVAIYVTDSDDKKLTIGDERVGLKRYKISTDDEGRARLTAYTETDNTGGQVRGIYTLDTGKQAWADYFDKTEQTGTDQAEQLEHHHHHH is less than 200 ng/µL?
Return: class 1

Enquiry: Is it true that Enzyme Activity Endpoint Assay (purified): Fc reported for PRT-201 (enzyme) MEVVEVWPYGQNPNGKTEILSQTEDSESLQRLRDIEDFQAEKKKQNVVYTKWLDGVDVKDHDFRKIKDGNIEYYATPLLNGRGFYDINKDFNRDSDKCAAAVAANMFHYWLDRNRDNVDRFLRQNPEKHGIIELPDGQLKLSDFLNTYESDDGYRDKSKLFDFISNNFNGPVWTDKLLDNYINGYAYNYKYGRTIEDPTKNTSKINFFKEVFNEKILTNNHSIRNQNEFSVLLSEALYTGKAIGLSYGPAGLRHSLGHIISVWGADLDADGNVVAIYVTDSDDKKLTIGDERVGLKRYKISTDDEGRARLTAYEETHNTGGQIRGLYTLDTGKQAWADYFDKTEQTGTDQAEQLEHHHHHH is less than 200 ng/µL?
Return: class 1

These entries and their values trace back to patent US20250027068A1.
